Biological target: Carbonic anhydrase 1 (Homo sapiens, UniProt P00915)
Sequence (P00915 whole entry): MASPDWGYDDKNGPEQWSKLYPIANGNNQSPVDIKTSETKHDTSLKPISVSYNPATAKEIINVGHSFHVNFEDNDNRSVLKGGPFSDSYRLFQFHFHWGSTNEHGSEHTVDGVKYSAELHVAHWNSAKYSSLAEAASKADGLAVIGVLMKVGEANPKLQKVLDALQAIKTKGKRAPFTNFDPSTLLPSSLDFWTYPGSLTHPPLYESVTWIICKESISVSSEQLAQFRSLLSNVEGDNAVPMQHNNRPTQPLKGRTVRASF
pKi: −log10 of the molar value.
Binary call on pKi: 1.0 from 7 upward, 0.0 beneath that.

compound="N#Cc1ccc(C2C=C(Nc3ccc(S(N)(=O)=O)cc3)C(=O)N2c2ccc(S(N)(=O)=O)cc2)cc1 (configuration not stated)" target_entity="Carbonic anhydrase 1 (Homo sapiens, UniProt P00915)" group_label=1.0
compound="NS(=O)(=O)c1ccc(NC2=CC(/C=C/c3ccccc3)N(c3ccc(S(N)(=O)=O)cc3)C2=O)cc1 (configuration not stated)" target_entity="Carbonic anhydrase 1 (Homo sapiens, UniProt P00915)" group_label=0.0
compound="COc1ccc(O)c(C2C=C(Nc3ccc(S(N)(=O)=O)cc3)C(=O)N2c2ccc(S(N)(=O)=O)cc2)c1 (configuration not stated)" target_entity="Carbonic anhydrase 1 (Homo sapiens, UniProt P00915)" group_label=1.0
compound="CC(C)c1ccc(C2C=C(Nc3ccc(S(N)(=O)=O)cc3)C(=O)N2c2ccc(S(N)(=O)=O)cc2)cc1 (configuration not stated)" target_entity="Carbonic anhydrase 1 (Homo sapiens, UniProt P00915)" group_label=0.0
compound="NS(=O)(=O)c1ccc(NC2=CC(c3cc(C(F)(F)F)cc(C(F)(F)F)c3)N(c3ccc(S(N)(=O)=O)cc3)C2=O)cc1 (configuration not stated)" target_entity="Carbonic anhydrase 1 (Homo sapiens, UniProt P00915)" group_label=1.0
compound="COc1cc(OC)c(C2C=C(Nc3ccc(S(N)(=O)=O)cc3)C(=O)O2)cc1OC (configuration not stated)" target_entity="Carbonic anhydrase 1 (Homo sapiens, UniProt P00915)" group_label=0.0

Values compiled from ChEMBL document CHEMBL5335801.
